The values you see were collected from patent US10670605B2.

Examples of compounds with documented isoTOP-ABPP reactivity ratio, Q9HB90_C358 follow.
target: RRAGC C358 (Q9HB90) (Homo sapiens, UniProt Q9HB90); assay: Competitive isoTOP-ABPP, cell lysates; format: binding; conditions: 500 μm, in-vitro_ramos_231
Sequence (Q9HB90 2-399 limits assumed): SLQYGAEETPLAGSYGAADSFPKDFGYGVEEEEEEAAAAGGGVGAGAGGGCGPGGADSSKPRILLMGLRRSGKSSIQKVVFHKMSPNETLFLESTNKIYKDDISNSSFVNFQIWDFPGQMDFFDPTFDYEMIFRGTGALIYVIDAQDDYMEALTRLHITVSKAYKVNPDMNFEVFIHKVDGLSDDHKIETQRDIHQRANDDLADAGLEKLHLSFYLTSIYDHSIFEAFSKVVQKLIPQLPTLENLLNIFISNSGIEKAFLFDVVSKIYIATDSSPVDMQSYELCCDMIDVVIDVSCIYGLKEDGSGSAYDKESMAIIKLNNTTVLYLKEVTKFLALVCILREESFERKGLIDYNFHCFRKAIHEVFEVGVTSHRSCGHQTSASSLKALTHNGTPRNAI
Sequence (Q7L523 whole entry partner): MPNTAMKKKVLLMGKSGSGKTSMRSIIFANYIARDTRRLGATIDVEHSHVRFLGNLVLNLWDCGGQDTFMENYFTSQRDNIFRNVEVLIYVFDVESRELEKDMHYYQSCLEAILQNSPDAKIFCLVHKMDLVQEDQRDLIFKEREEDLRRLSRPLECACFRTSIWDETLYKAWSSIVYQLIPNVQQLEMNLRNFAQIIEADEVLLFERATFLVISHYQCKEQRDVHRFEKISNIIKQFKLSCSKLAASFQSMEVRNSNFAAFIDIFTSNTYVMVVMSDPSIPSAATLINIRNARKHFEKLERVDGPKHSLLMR
Measure: isoTOP-ABPP reactivity ratio, Q9HB90_C358

- Compound: "C=CC(=O)Nc1cc(F)c(N2CCN(C(=O)OC(C)(C)C)CC2)c(F)c1 [compound 38]"
  Reported Measurement: 1.1
- Compound: "CC(C)(C)c1cc(NC(=O)CCl)on1 [compound 32]"
  Reported Measurement: 1.9
- Compound: "Cc1ccc(C=C(C#N)C(=O)NCCN2CCOCC2)cc1 [compound 41]"
  Reported Measurement: 1.3
- Compound: "C=CC(=O)N(Cc1cccnc1)c1cc(C(F)(F)F)cc(C(F)(F)F)c1 [compound 31]"
  Reported Measurement: 2.3

* * *

Biological target: cysteines in MDA-MB-231 and Ramos cells (Homo sapiens)
Sequence (Q9Y277 1-283): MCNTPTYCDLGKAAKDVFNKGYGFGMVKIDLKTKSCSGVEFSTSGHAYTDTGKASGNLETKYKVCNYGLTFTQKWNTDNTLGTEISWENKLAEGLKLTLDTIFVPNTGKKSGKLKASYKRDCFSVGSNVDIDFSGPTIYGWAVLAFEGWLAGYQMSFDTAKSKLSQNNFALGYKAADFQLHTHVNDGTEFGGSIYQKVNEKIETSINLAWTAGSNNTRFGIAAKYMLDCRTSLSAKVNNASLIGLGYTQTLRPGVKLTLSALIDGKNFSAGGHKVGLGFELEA
Assay: Competitive isoTOP-ABPP in situ (fragment-treated cells)
Format: cell-based
Conditions: 200 μM, insitu, 231
Examples of molecules with documented isoTOP-ABPP ratio Q9Y277_C65 follow.
Measure: isoTOP-ABPP ratio Q9Y277_C65

- Smiles Notation: "O=C(CCl)NC12CC3CC(CC(C3)C1)C2"
  Reported Measurement: 2.9
- Smiles Notation: "C=CC(=O)Nc1cc(F)c(N2CCN(C(=O)OC(C)(C)C)CC2)c(F)c1"
  Reported Measurement: 20.0
- Smiles Notation: "O=C(CCl)N1CCN(S(=O)(=O)c2ccccc2F)CC1"
  Reported Measurement: 3.3
- Smiles Notation: "Cc1ccc(C=C(C#N)C(=O)NCCN2CCOCC2)cc1"
  Reported Measurement: 1.4
- Smiles Notation: "O=C(CCl)NC(=O)NC12CC3CC(CC(C3)C1)C2"
  Reported Measurement: 3.9
- Smiles Notation: "COc1ccccc1OCCNC(=O)CCl"
  Reported Measurement: 1.2
- Smiles Notation: "O=C(CCl)NCCc1c[nH]c2ccccc12"
  Reported Measurement: 1.0
- Smiles Notation: "CC(C)CCOCCNC(=O)CCl"
  Reported Measurement: 1.6

* * *

molecular target: ACAT1 C196 (P24752) (Homo sapiens); assay: Competitive isoTOP-ABPP, cell lysates; assay type: binding; conditions: 500 μm, in-vitro_ramos
Sequence (P24752 34-427): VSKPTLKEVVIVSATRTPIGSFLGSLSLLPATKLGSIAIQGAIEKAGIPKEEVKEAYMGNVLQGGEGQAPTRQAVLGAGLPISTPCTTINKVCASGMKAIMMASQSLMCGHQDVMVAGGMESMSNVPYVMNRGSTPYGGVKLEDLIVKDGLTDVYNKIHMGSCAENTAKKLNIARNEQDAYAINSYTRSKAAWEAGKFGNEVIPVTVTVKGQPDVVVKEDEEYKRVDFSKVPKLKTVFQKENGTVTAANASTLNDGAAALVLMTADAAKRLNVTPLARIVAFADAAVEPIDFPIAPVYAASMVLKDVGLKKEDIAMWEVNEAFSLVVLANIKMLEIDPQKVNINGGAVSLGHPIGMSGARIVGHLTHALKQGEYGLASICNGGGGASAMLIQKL
Values of isoTOP-ABPP reactivity ratio, P24752_C196 greater than or equal to 1 map to Condition met; values below map to Condition not met.

- Smiles Notation: "C=CC(=O)Nc1cc(F)c(N2CCN(C(=O)OC(C)(C)C)CC2)c(F)c1"
  Classification: "Condition met"
- Smiles Notation: "O=C(CCl)Nc1ccccc1C1CCCCCC1"
  Classification: "Condition met"
- Smiles Notation: "CC(C)(C)c1cc(NC(=O)CCl)on1"
  Classification: "Condition met"
- Smiles Notation: "C=CC(=O)N(Cc1cccnc1)c1cc(C(F)(F)F)cc(C(F)(F)F)c1"
  Classification: "Condition not met"
- Smiles Notation: "CCN(CC)c1ccc(S(N)(=O)=O)cc1NC(=O)CCl"
  Classification: "Condition met"
